Source of measurements: ChEMBL document CHEMBL1124736

Reported log10 of K app is given for each of the following compounds.
- system.under.test: Muscarinic acetylcholine receptor (Rattus norvegicus) (UniProt P08482+P08483+P08485+P08911+P10980)
property.measured: log10 of K app (log10 of the value in µM)

compound | log10 of K app
CC(=O)Nc1noc(C2CN3CCC2CC3)n1 (centres undefined) | -0.92
NC(=O)c1noc(C2CN3CCC2CC3)n1 (centres undefined) | 0.23
Cc1cnc(C2CN3CCC2CC3)o1 (centres undefined) | -1.40
CN(C)c1noc(C2CN3CCC2CC3)n1 (centres undefined) | -1.68
CNc1noc(C2CN3CCC2CC3)n1 (centres undefined) | -1.28
CCc1noc(C2CN3CCC2CC3)n1 (centres undefined) | -2.25
Clc1noc(C2CN3CCC2CC3)n1 (centres undefined) | -3.32
Cc1coc(C2CN3CCC2CC3)n1 (centres undefined) | -1.57
COc1noc(C2CN3CCC2CC3)n1 (centres undefined) | -1.85

----------
- experimental.protocol: Log of the ratio of Kapp([3H]-NMS)/Kapp([3H]-OXO-M) was determined

molecule | Log ratio
Cc1coc(C2CN3CCC2CC3)c1 (centres undefined) | 1.18
Cc1cc(C2CN3CCC2CC3)on1 (centres undefined) | 1.59
Cc1coc(C2CN3CCC2CC3)n1 (centres undefined) | 1.72
Cc1nc(C2CN3CCC2CC3)no1 (centres undefined) | 1.73
Cc1noc(C2CN3CCC2CC3)n1 (centres undefined) | 2.69
Clc1noc(C2CN3CCC2CC3)n1 (centres undefined) | 2.6
Cc1ccc(C2CN3CCC2CC3)o1 (centres undefined) | 1.28
Cc1nnc(C2CN3CCC2CC3)o1 (centres undefined) | 2.11
Nc1noc(C2CN3CCC2CC3)n1 (centres undefined) | 3.08

----------
- system.under.test: Muscarinic acetylcholine receptor (Rattus norvegicus) (UniProt P08482+P08483+P08485+P08911+P10980)
Threshold 0.2 µM. K app below it: True. K app at it or above: False.

molecule | class.name
CNc1noc(C2CN3CCC2CC3)n1 (configuration not stated) | False
Cc1coc(C2CN3CCC2CC3)n1 (configuration not stated) | False
CCc1noc(C2CN3CCC2CC3)n1 (configuration not stated) | True
Clc1noc(C2CN3CCC2CC3)n1 (configuration not stated) | True
Brc1noc(C2CN3CCC2CC3)n1 (configuration not stated) | True
Cc1nc(C2CN3CCC2CC3)no1 (configuration not stated) | False
Cc1ccc(C2CN3CCC2CC3)o1 (configuration not stated) | False
Cc1cnc(C2CN3CCC2CC3)o1 (configuration not stated) | False
C[N+]12CCC(CC1)C(c1nc(N)no1)C2 (configuration not stated) | False
CC(=O)Nc1noc(C2CN3CCC2CC3)n1 (configuration not stated) | False
c1ccc(Cc2noc(C3CN4CCC3CC4)n2)cc1 (configuration not stated) | True
